Each entry below lists one item and its recorded composite z-score value.
- System: Neuregulin-1 EGF-like domain
- protocol description: binders of neuregulin-1 EGF-like domain, primary screen, biochemical, small-molecule microarray, 635 nm fluorescence (AID 1081);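 further: binding of the protein to compounds printed on small-molecule microarray slides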
- stated conditions: small-molecule microarray binding, higher = more signal

compound: CN1C(=O)C2C(C1=O)C1C=C(c3ccc(CO)cc3)C2C(c2cccs2)N1C (configuration not stated)
composite z-score: 1.04
--
compound: COC(=O)[C@@]1(Cc2ccc(F)cc2)[C@H]2c3cc(C(=O)N(C)C)n(CCO)c3C[C@H]2CN1C(=O)c1ccccc1
composite z-score: 1.06
--
compound: COCCOC(=O)N1C(=O)[C@@]2(c3cc(C#CCC(C(=O)OC)C(=O)OC)ccc31)[C@H](c1ccc(OCCO)cc1)N1[C@H](c3ccccc3)[C@H](c3ccccc3)OC(=O)[C@H]1[C@@H]2C(=O)N1CCCCCCC1
composite z-score: 1.3
--
compound: CC(C)CNC(=O)[C@@H]1c2ccccc2C(=O)N(C(C)C)[C@H]1c1ccc(CO)cc1
composite z-score: 1.41
--
compound: CCOC(=O)C1=CC[C@@H](c2ccccc2)N(S(=O)(=O)C[Si](C)(C)C)[C@H]1c1ccccc1
composite z-score: 0.924
--
compound: C=CC[C@@]1(C(=O)O)N=C(c2ccc(OCCCO)cc2)O[C@@H]1c1ccccc1CN=[N+]=[N-]
composite z-score: 1.08
--
compound: Cc1ccc(S[C@]2(C(=O)NCCN3CCOCC3)CC(=O)N(C3CCCCC3)[C@@H]2c2ccc(CO)cc2I)cc1
composite z-score: 1.22
